Target: UniProtKB P35968
Assay: In Vitro Receptor Tyrosine Kinase Assay (VEGF receptor KDR), DELFIA
Settings: recombinant GST-VEGFR2 806-1356, enzyme 5 nM, ATP 0.6 uM (2x Km), poly(Glu4,Tyr) substrate; read-out: VEGFR_IC50_UM
Description: This test measures the ability of compounds to inhibit the enzymatic activity of recombinant human VEGF receptor enzymatic activity. […] Inhibition of VEGFR/KDR is measured in a DELFIA™ assay (Perkin Elmer). […] Phosphorylated product is detected by incubation with Europium-labeled anti-phosphotyrosine MoAb. After washing the plates, bound MoAb is detected by time-resolved fluorescence in a Gemini SpectraMax reader (Molecular Devices). […]
Binning of IC50 into classes: lowest: < 7 nM; middle: ≥ 7 nM and < 40 nM; highest: ≥ 40 nM

Illustrative cases are given below, each with its answer.
Item smiles	Class assignment
O=C1CCCN1Cc1ccc(-c2cc3nccc(Oc4ccc5oc(Nc6ccc(C(F)(F)F)cc6)nc5c4)c3s2)nc1	lowest
Clc1ccc(Nc2nc3cc(Oc4ccnc5cc(-c6ccc(CNc7cccc(OCCN8CCOCC8)c7)cn6)sc45)ccc3o2)cc1	middle
COCCN(Cc1ccc(-c2cc3nccc(Oc4ccc5oc(Nc6ccccc6)nc5c4)c3s2)nc1)C(C)=O	highest
CC(C)(C)OC(=O)N1CCN(Cc2ccc(-c3cc4nccc(Oc5ccc6oc(Nc7ccc(Cl)cc7)nc6c5)c4s3)nc2)CC1	highest
O=C1CCCN1Cc1ccc(-c2cc3nccc(Oc4ccc5oc(Nc6cccc(F)c6)nc5c4)c3s2)nc1	middle

Form: Item = O=C1CCCN1Cc1ccc(-c2cc3nccc(Oc4ccc5oc(Nc6ccc(Cl)c(C(F)(F)F)c6)nc5c4)c3s2)nc1 ; Class = ? middle

Please classify: CN(C(=O)CO)C1CCN(Cc2ccc(-c3cc4nccc(Oc5ccc6oc(Nc7ccc(Cl)cc7)nc6c5)c4s3)nc2)CC1 lowest

* * *

Target: VEGFR2 (KDR) (Homo sapiens, UniProt P35968)
Sequence (P35968 806-1356): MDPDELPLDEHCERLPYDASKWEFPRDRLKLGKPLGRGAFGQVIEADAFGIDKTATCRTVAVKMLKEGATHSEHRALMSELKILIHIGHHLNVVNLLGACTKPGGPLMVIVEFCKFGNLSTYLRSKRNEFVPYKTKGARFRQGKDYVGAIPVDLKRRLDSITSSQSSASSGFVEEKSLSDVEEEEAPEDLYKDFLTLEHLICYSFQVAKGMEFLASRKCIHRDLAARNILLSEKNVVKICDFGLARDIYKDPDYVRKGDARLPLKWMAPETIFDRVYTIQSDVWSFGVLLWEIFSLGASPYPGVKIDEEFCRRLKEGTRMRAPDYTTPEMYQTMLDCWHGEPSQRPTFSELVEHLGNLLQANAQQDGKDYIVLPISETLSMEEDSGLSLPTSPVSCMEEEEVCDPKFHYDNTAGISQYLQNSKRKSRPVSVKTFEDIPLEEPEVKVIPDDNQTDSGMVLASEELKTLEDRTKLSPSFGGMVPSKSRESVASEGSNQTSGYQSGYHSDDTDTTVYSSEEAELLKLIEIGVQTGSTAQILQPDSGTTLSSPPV
Assay: In Vitro Receptor Tyrosine Kinase Assay (VEGF receptor KDR), DELFIA
Settings: recombinant GST-VEGFR2 806-1356, enzyme 5 nM, ATP 0.6 uM (2x Km), poly(Glu4,Tyr) substrate; read-out: VEGFR_IC50_UM
The label met is reserved for IC50 strictly under 20 nM; not met covers values equal to or above it.

Take a look at these entries with their results.
Item smiles	Assay target	Class assignment
CCNC(=O)N(C)C1CCN(Cc2ccc(-c3cc4nccc(Oc5ccc6oc(Nc7ccc(Cl)cc7)nc6c5)c4s3)nc2)CC1	VEGFR2 (KDR) (Homo sapiens, UniProt P35968)	met
O=C(c1cc2nccc(Oc3ccc4oc(Nc5ccccc5)nc4c3)c2s1)N1CCCCC1	VEGFR2 (KDR) (Homo sapiens, UniProt P35968)	not met
O=C1CCCN1Cc1ccc(-c2cc3nccc(Oc4ccc5oc(NC6CC6)nc5c4)c3s2)nc1	VEGFR2 (KDR) (Homo sapiens, UniProt P35968)	not met

Here's an entry: O=C1CCCN1Cc1ccc(-c2cc3nccc(Oc4ccc5nc(Nc6ccc(Cl)cc6)oc5c4)c3s2)nc1 . Is its IC50 below 20 nM? not met

Record O=C1CCCN1Cc1ccc(-c2cc3nccc(Oc4ccc5oc(Nc6ccccc6Cl)nc5c4)c3s2)nc1 : is its IC50 strictly below 20 nM? not met

hey, is IC50 for COCCN(Cc1ccc(-c2cc3nccc(Oc4ccc5oc(Nc6ccc(Cl)cc6)nc5c4)c3s2)nc1)C(C)=O lower than 20 nM or not? met

is_below(IC50, 20 nM) for CCNC(=O)NC1CCN(Cc2ccc(-c3cc4nccc(Oc5ccc6oc(Nc7ccc(Cl)cc7)nc6c5)c4s3)nc2)CC1 ? met

Identify whether the compound COCCN(Cc1ccc(-c2cc3nccc(Oc4ccc5oc(NC6CC6)nc5c4)c3s2)nc1)C(C)=O records IC50 below 20 nM. not met

Please determine if COc1ccc(Nc2nc3cc(Oc4ccnc5cc(-c6ccc(CN7CCCC7=O)cn6)sc45)ccc3o2)cc1 is below 20 nM in terms of IC50. met

For this compound, is IC50 lower than 20 nM? O=C1CCCN1Cc1ccc(-c2cc3nccc(Oc4ccc5oc(Nc6ccc(Cl)cc6)nc5c4)c3s2)nc1 met

IC50 strictly < 20 nM for this compound? CCn1cc(CN(Cc2ccc(-c3cc4nccc(Oc5ccc6oc(Nc7ccc(Cl)cc7)nc6c5)c4s3)nc2)C(C)C)nn1 met

Say whether its IC50 is strictly beneath 20 nM. Entry: Clc1ccc(Nc2nc3cc(Oc4ccnc5cc(-c6ccc(CNc7cc[nH]n7)cn6)sc45)ccc3o2)cc1 not met

Quick check: IC50 of O=C(CO)NC1CCN(Cc2ccc(-c3cc4nccc(Oc5ccc6oc(Nc7ccc(Cl)cc7)nc6c5)c4s3)nc2)CC1 under 20 nM? met

API: query returns whether the compound falls strictly under 20 nM in IC50. Query: CN(C)[C@H]1CCN(C(=O)c2cc3nccc(Oc4ccc5oc(Nc6ccccc6)nc5c4)c3s2)C1 met

Find out if reported IC50 for CCN(CC)CCNC(=O)c1ccc(NCc2ccc(-c3cc4nccc(Oc5ccc6oc(Nc7ccc(Cl)cc7)nc6c5)c4s3)nc2)cc1 is less than 20 nM met

Please let me know if O=C1CCCN1Cc1ccc(-c2cc3nccc(Oc4ccc5oc(Nc6cccc(Cl)c6)nc5c4)c3s2)nc1 shows IC50 below 20 nM. met

Input Clc1ccc(Nc2nc3cc(Oc4ccnc5cc(-c6ccc(CNc7ccc(OCCN8CCOCC8)cc7)cn6)sc45)ccc3o2)cc1 ; condition: IC50 strictly below 20 nM. Does it hold? not met

Here's an entry: O=C1CCCN1Cc1ccc(-c2cc3nccc(Oc4ccc5nc(Nc6cccc(Cl)c6)oc5c4)c3s2)nc1 . Is its IC50 below 20 nM? not met

Is the reported IC50 for O=C1CCCN1Cc1ccc(-c2cc3nccc(Oc4ccc5oc(Nc6ccc(F)cc6)nc5c4)c3s2)nc1 strictly below 20 nM? met
